- Test Name: Repeated oral dosing (5 mg/kg every 12 h, six doses) plasma trough concentrations in koalas
- Format: in vivo
- Cond: male, koala (Phascolarctos cinereus), plasma, median (range), males, 72 h, 5 mg/kg oral every 12 h, read-out: Firocoxib trough plasma concentration
Observed Property: concentration at 72 h

So for `CC1(C)OC(=O)C(OCC2CC2)=C1c1ccc(S(C)(=O)=O)cc1` , the logged concentration at 72 h turned out to be 56.2 ng/mL

====

- Test Name: Single oral dose (5 mg/kg) pharmacokinetics of firocoxib in koalas, plasma HPLC, non-compartmental analysis
- Cond: both, plasma, po, 5 mg/kg, ke, median (range), n = 6 koalas; single oral 5 mg/kg
Observed Property: k el (s⁻¹)
Express the result in s⁻¹ but write the number alone.

Per the records, this compound ( CC1(C)OC(=O)C(OCC2CC2)=C1c1ccc(S(C)(=O)=O)cc1 [firocoxib] ) has k el equal to 4.17e-05

====

- Test Name: Single oral dose (5 mg/kg) pharmacokinetics of firocoxib in koalas, plasma HPLC, non-compartmental analysis
- Cond: both, plasma, po, 5 mg/kg, Tmax, arithmetic mean, n = 6 koalas; single oral 5 mg/kg
Observed Property: Tmax (h)
Give just the number in h; leave the unit off.

Sure, the documented Tmax for CC1(C)OC(=O)C(OCC2CC2)=C1c1ccc(S(C)(=O)=O)cc1 [firocoxib] is 4.33

====

- Test Name: Single oral dose (5 mg/kg) pharmacokinetics of firocoxib in koalas, plasma HPLC, non-compartmental analysis
- Cond: male, plasma, po, 5 mg/kg, MRT0-inf, arithmetic mean, male koalas (n = 3); single oral 5 mg/kg
Observed Property: MRT inf (h)
Express your answer in h, writing the number without its unit.

Value of MRT inf reported for the compound `CC1(C)OC(=O)C(OCC2CC2)=C1c1ccc(S(C)(=O)=O)cc1` is 11.1

====

- Test Name: Single oral dose (5 mg/kg) pharmacokinetics of firocoxib in koalas, plasma HPLC, non-compartmental analysis
- Cond: male, koala, plasma, po, 5 mg/kg, Firocoxib plasma concentration, K2 male; 1 h; single oral 5 mg/kg
Observed Property: concentration at 1 h (ng/mL)
The figure you give is taken to be in ng/mL; do not add the unit.

Short answer for `CC1(C)OC(=O)C(OCC2CC2)=C1c1ccc(S(C)(=O)=O)cc1` : concentration at 1 h was 21.7

====

- Test Name: Single oral dose (5 mg/kg) pharmacokinetics of firocoxib in koalas, plasma HPLC, non-compartmental analysis
- Cond: male, plasma, po, 5 mg/kg, ke (elimination constant), K1 male; single oral 5 mg/kg; slope from 12, 24 h
Observed Property: k el (s⁻¹)
Record the value in s⁻¹, omitting the unit from your answer.

Lookup result for `CC1(C)OC(=O)C(OCC2CC2)=C1c1ccc(S(C)(=O)=O)cc1` ; measured k el: 1.39e-05

====

- Test Name: Single oral dose (5 mg/kg) pharmacokinetics of firocoxib in koalas, plasma HPLC, non-compartmental analysis
- Cond: male, koala, plasma, po, 5 mg/kg, Firocoxib plasma concentration, K1 male; 0.25 h; single oral 5 mg/kg
Observed Property: concentration at 0.25 h
Could you kindly put the unit after your number?

# concentration at 0.25 h of `CC1(C)OC(=O)C(OCC2CC2)=C1c1ccc(S(C)(=O)=O)cc1` = 7.94 ng/mL

====

- Test Name: Single oral dose (5 mg/kg) pharmacokinetics of firocoxib in koalas, plasma HPLC, non-compartmental analysis
- Cond: male, plasma, po, 5 mg/kg, Tmax, K2 male; single oral 5 mg/kg
Observed Property: Tmax (h)
The reply should be a number in h, with the unit left off.

The compound `CC1(C)OC(=O)C(OCC2CC2)=C1c1ccc(S(C)(=O)=O)cc1` showed Tmax equal to 4

====

- Test Name: Single oral dose (5 mg/kg) pharmacokinetics of firocoxib in koalas, plasma HPLC, non-compartmental analysis
- Cond: female, koala, plasma, po, 5 mg/kg, Firocoxib plasma concentration, K5 female; 36 h; single oral 5 mg/kg
Observed Property: concentration at 36 h (ng/mL)
// note: answer is a bare numeric in ng/mL

Data point: `CC1(C)OC(=O)C(OCC2CC2)=C1c1ccc(S(C)(=O)=O)cc1` ; concentration at 36 h = 3.83

====

- Test Name: Single oral dose (5 mg/kg) pharmacokinetics of firocoxib in koalas, plasma HPLC, non-compartmental analysis
- Cond: female, plasma, po, 5 mg/kg, AUC0-t, K6 female; single oral 5 mg/kg
Observed Property: AUC(0-t)
Write the quantity with the unit trailing the number.

Recorded AUC(0-t) (molecule CC1(C)OC(=O)C(OCC2CC2)=C1c1ccc(S(C)(=O)=O)cc1 [firocoxib] ): 444 ng·h/mL

====

- Test Name: Repeated oral dosing (5 mg/kg every 12 h, six doses) plasma trough concentrations in koalas
- Format: in vivo
- Cond: female, koala (Phascolarctos cinereus), in vivo, Plasma firocoxib concentration (trough)
Observed Property: concentration at 72 h
Just so you know, I need the unit written after the number.

concentration at 72 h recorded for this compound, `CC1(C)OC(=O)C(OCC2CC2)=C1c1ccc(S(C)(=O)=O)cc1` , is 137 ng/mL

====

- Test Name: Repeated oral dosing (5 mg/kg every 12 h, six doses) plasma trough concentrations in koalas
- Type: in vivo
- Cond: both sexes, koala (Phascolarctos cinereus), plasma, arithmetic mean, six koalas, 24 h, 5 mg/kg oral every 12 h, read-out: Firocoxib plasma trough concentration
Observed Property: concentration at 24 h (ng/mL)
// return numeric value only (unit: ng/mL, not printed)

Just so you know, measured concentration at 24 h for `CC1(C)OC(=O)C(OCC2CC2)=C1c1ccc(S(C)(=O)=O)cc1` came out at 54.7

====

- Test Name: Single oral dose (5 mg/kg) pharmacokinetics of firocoxib in koalas, plasma HPLC, non-compartmental analysis
- Cond: both, plasma, po, 5 mg/kg, AUC0-inf, arithmetic mean, n = 6 koalas; single oral 5 mg/kg
Observed Property: AUC(0-inf) (ng·h/mL)
Dear colleague, please return just the value in ng·h/mL, with no unit written.

Sample CC1(C)OC(=O)C(OCC2CC2)=C1c1ccc(S(C)(=O)=O)cc1 [firocoxib] ; AUC(0-inf) observed: 1480

====

- Test Name: Single oral dose (5 mg/kg) pharmacokinetics of firocoxib in koalas, plasma HPLC, non-compartmental analysis
- Cond: female, koala (Phascolarctos cinereus), plasma, po, 5 mg/kg, Firocoxib plasma concentration, K4 female; 4 h; single oral 5 mg/kg
Observed Property: concentration at 4 h (ng/mL)
Just the number please, in ng/mL, no unit attached.

Given item `CC1(C)OC(=O)C(OCC2CC2)=C1c1ccc(S(C)(=O)=O)cc1` , the value recorded as its concentration at 4 h is 89.3

====

- Test Name: Single oral dose (5 mg/kg) pharmacokinetics of firocoxib in koalas, plasma HPLC, non-compartmental analysis
- Cond: male, plasma, po, 5 mg/kg, t1/2, median value, male koalas; PO 5 mg/kg
Observed Property: half-life (h)
Provide only the numeric value, understood in h.

Consider `CC1(C)OC(=O)C(OCC2CC2)=C1c1ccc(S(C)(=O)=O)cc1` . Its measured half-life is 3.31

====

- Test Name: Single oral dose (5 mg/kg) pharmacokinetics of firocoxib in koalas, plasma HPLC, non-compartmental analysis
- Cond: male, plasma, po, 5 mg/kg, ke, arithmetic mean, male koalas (n = 3); single oral 5 mg/kg
Observed Property: k el (s⁻¹)
Could you give me the number in s⁻¹? Just the number is fine.

The compound listed as CC1(C)OC(=O)C(OCC2CC2)=C1c1ccc(S(C)(=O)=O)cc1 [firocoxib] has a reported k el of 4.44e-05

====

- Test Name: Single oral dose (5 mg/kg) pharmacokinetics of firocoxib in koalas, plasma HPLC, non-compartmental analysis
- Cond: male, plasma, po, 5 mg/kg, ke (elimination constant), K3 male; single oral 5 mg/kg; slope from 4, 8, 12 h
Observed Property: k el (s⁻¹)
Numbers only; they are read as s⁻¹.

Reported k el for `CC1(C)OC(=O)C(OCC2CC2)=C1c1ccc(S(C)(=O)=O)cc1` was 6.11e-05

====

- Test Name: Single oral dose (5 mg/kg) pharmacokinetics of firocoxib in koalas, plasma HPLC, non-compartmental analysis
- Cond: male, plasma, po, 5 mg/kg, Tmax, harmonic mean, male koalas (n = 3); single oral 5 mg/kg
Observed Property: Tmax (h)
Write it as a number; the unit h goes unstated.

Tmax recorded for this compound, `CC1(C)OC(=O)C(OCC2CC2)=C1c1ccc(S(C)(=O)=O)cc1` , is 4.8

====

- Test Name: Single oral dose (5 mg/kg) pharmacokinetics of firocoxib in koalas, plasma HPLC, non-compartmental analysis;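 note: healthy adult koalas, three per sex, anaesthetised the day before dosing for cephalic vein catheterisation, with serial blood draws and firocoxib in plasma quantified by HPLC using fluorescence detection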
- Cond: male, koala, plasma, po, 5 mg/kg, Firocoxib plasma concentration, K3 male; 24 h; single oral 5 mg/kg
Observed Property: concentration at 24 h
The number alone won't do; follow it with the unit.

Quick note, concentration at 24 h for `CC1(C)OC(=O)C(OCC2CC2)=C1c1ccc(S(C)(=O)=O)cc1` landed at 3.86 ng/mL
